- Experimental protocol: metabolic microsomal stability, rat liver microsomes
- Assay type: in vitro ADME
- Setup conditions: pH 7.4, 0.5 mg/mL protein
Experimental endpoint: microsomal CLint at 3 μM (µL/min/mg)

> print(dat)
                                   compound  value
1  CC(C)C1NC(=O)Cc2ccc(Cl)cc2Nc2ncnc3cc(OCCF)c(cc23)OCCCNC1=O (stereo not shown) [Compound (Ia)]   37.9

====

- Tested on: NCI-H441 (EGFR WT)
- Experimental protocol: MTS cell viability assay, 72 hours
- Type: cell-based, Human
- Setup conditions: Homo sapiens, NCI-H441, 72 h, read-out: Cellular IC50 NCI-H441 (EGFR WT)
pIC50: −log10 of the molar value.
# pIC50 per entry
Experimental endpoint: pIC50

> print(dat)
                                   molecule  relation.qualifier  value
1  CC(C)[C@H]1NC(=O)Cc2ccc(Cl)cc2Nc2ncnc3cc(OCCF)c(cc23)OCCCNC1=O                   =   4.46
2  CC(C)[C@@H]1NC(=O)Cc2ccc(Cl)cc2Nc2ncnc3cc(OCCF)c(cc23)OCCCNC1=O                   <   4.60
3  CC(C)C1NC(=O)Cc2ccc(Cl)cc2Nc2ncnc3cc(OCCF)c(cc23)OCCCNC1=O (stereo not drawn)                   =   4.46

====

- Target of assay: NCI-H3255 tumor cell homogenates (activated EGFR) (Homo sapiens, UniProt P00533, L858R)
- Construct: endogenous in cells; host or cells: NCI-H3255
- Sequence (P00533 25-1210 L858R): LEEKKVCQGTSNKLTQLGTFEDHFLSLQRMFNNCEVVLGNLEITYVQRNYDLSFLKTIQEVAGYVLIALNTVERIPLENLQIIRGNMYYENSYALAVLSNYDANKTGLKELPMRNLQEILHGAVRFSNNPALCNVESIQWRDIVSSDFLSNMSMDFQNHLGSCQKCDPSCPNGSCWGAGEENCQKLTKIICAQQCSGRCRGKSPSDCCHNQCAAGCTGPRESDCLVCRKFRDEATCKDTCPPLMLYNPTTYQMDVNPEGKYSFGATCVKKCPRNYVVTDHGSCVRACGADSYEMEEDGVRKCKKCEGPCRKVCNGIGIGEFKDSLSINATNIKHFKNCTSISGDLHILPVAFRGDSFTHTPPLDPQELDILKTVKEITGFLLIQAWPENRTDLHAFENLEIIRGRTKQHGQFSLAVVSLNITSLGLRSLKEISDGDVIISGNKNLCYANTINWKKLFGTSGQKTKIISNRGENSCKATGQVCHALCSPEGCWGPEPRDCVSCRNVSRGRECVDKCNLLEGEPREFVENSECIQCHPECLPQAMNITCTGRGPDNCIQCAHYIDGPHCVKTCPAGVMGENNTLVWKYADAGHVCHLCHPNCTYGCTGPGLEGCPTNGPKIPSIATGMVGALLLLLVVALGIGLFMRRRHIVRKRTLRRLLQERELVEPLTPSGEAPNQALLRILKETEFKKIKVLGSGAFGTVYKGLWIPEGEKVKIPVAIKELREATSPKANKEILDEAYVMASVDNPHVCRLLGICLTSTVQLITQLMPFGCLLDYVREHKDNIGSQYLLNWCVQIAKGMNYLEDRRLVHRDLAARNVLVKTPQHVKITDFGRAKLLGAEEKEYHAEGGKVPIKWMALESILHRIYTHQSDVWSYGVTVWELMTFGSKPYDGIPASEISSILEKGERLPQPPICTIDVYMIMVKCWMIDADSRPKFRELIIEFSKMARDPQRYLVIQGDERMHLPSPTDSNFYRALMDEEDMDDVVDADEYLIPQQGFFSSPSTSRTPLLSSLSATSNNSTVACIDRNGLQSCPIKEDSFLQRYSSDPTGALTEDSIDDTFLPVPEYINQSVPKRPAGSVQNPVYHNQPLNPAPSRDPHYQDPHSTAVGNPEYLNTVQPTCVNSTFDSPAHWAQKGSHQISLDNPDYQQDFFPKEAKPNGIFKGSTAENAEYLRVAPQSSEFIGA
- Experimental protocol: binding competition on tumor cell homogenates
- Setup conditions: read-out: binding affinity (Kd)
pKd: −log10 of the molar value.
Experimental endpoint: pKd

> print(dat)
                                   compound  value
1  CC(C)C1NC(=O)Cc2ccc(Cl)cc2Nc2ncnc3cc(OCC[18F])c(cc23)OCCCNC1=O (stereo not shown) [Compound (I)]   7.62

====

- Target of assay: NCI-H1975 tumor homogenates (activated EGFR) (Homo sapiens, UniProt P00533, L858R/T790M)
- Construct: from tissue; host or cells: NCI-H1975 tumor homogenate
- Sequence (P00533 25-1210 T790M/L858R): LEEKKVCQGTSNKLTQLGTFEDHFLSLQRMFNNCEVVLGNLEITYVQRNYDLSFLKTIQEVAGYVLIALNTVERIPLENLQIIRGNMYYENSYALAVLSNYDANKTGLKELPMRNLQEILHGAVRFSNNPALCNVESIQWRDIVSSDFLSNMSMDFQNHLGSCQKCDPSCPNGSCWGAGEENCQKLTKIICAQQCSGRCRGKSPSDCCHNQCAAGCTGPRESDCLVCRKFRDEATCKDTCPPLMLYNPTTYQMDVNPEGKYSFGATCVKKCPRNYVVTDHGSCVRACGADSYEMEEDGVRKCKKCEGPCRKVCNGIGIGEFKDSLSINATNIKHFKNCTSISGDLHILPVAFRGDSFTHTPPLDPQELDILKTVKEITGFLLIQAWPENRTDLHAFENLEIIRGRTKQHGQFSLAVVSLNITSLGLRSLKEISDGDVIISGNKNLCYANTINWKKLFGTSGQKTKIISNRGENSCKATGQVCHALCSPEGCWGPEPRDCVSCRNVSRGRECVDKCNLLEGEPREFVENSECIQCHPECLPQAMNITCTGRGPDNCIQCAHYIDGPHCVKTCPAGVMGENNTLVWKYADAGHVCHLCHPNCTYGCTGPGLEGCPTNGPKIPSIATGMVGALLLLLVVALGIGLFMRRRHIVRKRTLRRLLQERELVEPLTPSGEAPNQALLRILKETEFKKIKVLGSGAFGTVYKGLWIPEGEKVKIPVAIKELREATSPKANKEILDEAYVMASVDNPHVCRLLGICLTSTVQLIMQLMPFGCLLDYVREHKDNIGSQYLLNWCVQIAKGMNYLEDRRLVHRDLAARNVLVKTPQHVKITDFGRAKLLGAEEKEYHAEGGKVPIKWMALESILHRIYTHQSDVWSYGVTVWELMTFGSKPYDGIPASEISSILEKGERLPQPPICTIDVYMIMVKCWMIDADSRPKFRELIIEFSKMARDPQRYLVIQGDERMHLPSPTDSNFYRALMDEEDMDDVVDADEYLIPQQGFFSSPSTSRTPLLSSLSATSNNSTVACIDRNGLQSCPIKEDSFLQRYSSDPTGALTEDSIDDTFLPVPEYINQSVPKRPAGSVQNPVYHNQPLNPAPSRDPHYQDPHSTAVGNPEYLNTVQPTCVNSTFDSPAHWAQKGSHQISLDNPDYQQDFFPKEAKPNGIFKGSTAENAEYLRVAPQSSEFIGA
- Experimental protocol: binding competition and binding kinetic on tumor homogenates
- Setup conditions: read-out: binding affinity
- Description: FIG. 2: Binding affinity constant of Compound (II) determined in competition experiments on NCI-H3255 (A) and NCI-H1975 (B) tumor extracts. […] FIG. 3: Binding kinetic of Compound (II) evaluated on NCI-H3255 (A) and NCI-H1975 (B) tumor extracts. […] Non-specific binding was evaluated in the presence of a>100 fold excess Compound (IIa). […] The binding kinetic of Compound (I) was also assessed in NCI-H3255 and NCI-H1975 tumor homogenates (FIG. 3).
Experimental endpoint: Kd (nM)

> print(dat)
                                   molecule                           target.of.assay  experimental.endpoint  value
1  CC(C)C1NC(=O)Cc2ccc(Cl)cc2Nc2ncnc3cc(OCC[18F])c(cc23)OCCCNC1=O (stereo not shown) [Compound (I)]  NCI-H1975 tumor homogenates (activated EGFR) (Homo sapiens, UniProt P00533, L858R/T790M)                     Kd    4.7

====

- Target of assay: EGFR L858R (human, 672-1210) (Homo sapiens, UniProt P00533, L858R)
- Construct: (human, 672-1210)
- Sequence (P00533 672-1210 L858R): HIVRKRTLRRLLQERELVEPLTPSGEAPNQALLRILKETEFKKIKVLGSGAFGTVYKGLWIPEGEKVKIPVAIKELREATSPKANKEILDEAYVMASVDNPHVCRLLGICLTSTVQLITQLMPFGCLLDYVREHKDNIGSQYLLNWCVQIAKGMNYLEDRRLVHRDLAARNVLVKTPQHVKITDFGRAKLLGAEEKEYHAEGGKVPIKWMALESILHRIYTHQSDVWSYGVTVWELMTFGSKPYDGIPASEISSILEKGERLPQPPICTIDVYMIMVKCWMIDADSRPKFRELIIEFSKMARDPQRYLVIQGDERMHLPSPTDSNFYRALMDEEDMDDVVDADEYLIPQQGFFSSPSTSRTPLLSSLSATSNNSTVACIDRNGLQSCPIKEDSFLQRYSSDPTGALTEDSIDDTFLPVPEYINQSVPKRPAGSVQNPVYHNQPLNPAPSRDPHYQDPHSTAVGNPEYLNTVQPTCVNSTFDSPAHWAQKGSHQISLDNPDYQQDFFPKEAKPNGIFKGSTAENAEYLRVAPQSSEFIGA
- Experimental protocol: radiometric protein kinase assay (33PanQinase Activity Assay)
- Setup conditions: Tests 1-3 are repeat determinations; read-out: Biochemical IC50 EGFR L858R
Experimental endpoint: IC50 (nM)

> print(dat)
                                   molecule                           target.of.assay  units.of.measure  value
1  CC(C)[C@H]1NC(=O)Cc2ccc(Cl)cc2Nc2ncnc3cc(OCCF)c(cc23)OCCCNC1=O [Compound (IIIa)]  EGFR L858R (human, 672-1210) (Homo sapiens, UniProt P00533, L858R)                nM    2.7

====

- Target of assay: NCI-H441 tumor cell homogenates (activated EGFR) (Homo sapiens, UniProt P00533)
- Construct: endogenous in cells
- Sequence (P00533 25-1210): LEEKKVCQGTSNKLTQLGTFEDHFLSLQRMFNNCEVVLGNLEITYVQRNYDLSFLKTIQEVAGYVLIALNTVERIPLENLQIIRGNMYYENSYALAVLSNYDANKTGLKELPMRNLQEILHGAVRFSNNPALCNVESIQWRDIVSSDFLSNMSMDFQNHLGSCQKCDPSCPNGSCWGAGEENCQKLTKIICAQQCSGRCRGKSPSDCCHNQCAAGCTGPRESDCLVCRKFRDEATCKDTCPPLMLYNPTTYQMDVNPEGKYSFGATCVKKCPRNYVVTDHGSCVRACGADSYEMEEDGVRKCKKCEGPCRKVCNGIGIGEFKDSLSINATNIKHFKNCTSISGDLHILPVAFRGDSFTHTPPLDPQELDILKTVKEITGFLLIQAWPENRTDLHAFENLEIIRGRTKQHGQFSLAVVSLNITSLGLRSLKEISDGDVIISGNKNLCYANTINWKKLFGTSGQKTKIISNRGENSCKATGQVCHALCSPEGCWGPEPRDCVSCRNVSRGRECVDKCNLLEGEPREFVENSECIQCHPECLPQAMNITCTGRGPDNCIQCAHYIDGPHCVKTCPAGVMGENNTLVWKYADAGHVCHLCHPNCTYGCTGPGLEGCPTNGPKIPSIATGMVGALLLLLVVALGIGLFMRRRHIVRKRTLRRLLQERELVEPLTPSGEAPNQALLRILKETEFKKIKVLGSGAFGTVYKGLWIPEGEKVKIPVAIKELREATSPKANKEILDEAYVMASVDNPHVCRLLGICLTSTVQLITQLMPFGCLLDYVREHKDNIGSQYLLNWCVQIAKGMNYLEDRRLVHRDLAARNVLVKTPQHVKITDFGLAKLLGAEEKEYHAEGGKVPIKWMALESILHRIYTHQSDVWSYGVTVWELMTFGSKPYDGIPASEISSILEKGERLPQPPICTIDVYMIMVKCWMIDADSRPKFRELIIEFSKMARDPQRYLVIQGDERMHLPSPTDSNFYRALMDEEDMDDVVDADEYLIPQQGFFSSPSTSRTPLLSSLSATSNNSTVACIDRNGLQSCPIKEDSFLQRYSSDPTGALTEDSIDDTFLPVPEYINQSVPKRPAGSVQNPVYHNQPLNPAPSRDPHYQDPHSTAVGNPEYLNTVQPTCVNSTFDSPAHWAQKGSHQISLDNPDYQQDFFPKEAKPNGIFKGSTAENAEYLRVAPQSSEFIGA
- Experimental protocol: binding competition on tumor cell homogenates
- Setup conditions: read-out: binding affinity (Kd)
- Description: FIG. 1: Binding affinity constant of Compound (II) determined in competition experiments on NCI-H3255 (A) and NCI-H441 (B) cell line extracts. NCI-H3255 and NCI-H441 cell line extracts were incubated at room temperature for 90 min with Compound (II) (0.5-0.7 nM) and with increasing concentrations of Compound (IIa) (0.05 nM to 10 μM). The binding affinity of Compound (I) and the number of binding sites were first evaluated on NCI-H3255 and NCI-H441 tumor cell homogenates (FIG. 1). […]
Experimental endpoint: Kd (nM)

> print(dat)
                                   compound  experimental.endpoint  units.of.measure  value
1  CC(C)C1NC(=O)Cc2ccc(Cl)cc2Nc2ncnc3cc(OCC[18F])c(cc23)OCCCNC1=O (stereo not shown)                     Kd                nM   25.8

====

- Test system: NCI-H441 (EGFR WT)
- Experimental protocol: MTS cell viability assay, 72 hours
- Format: cell-based, Human
- Setup conditions: read-out: Cellular IC50 NCI-H441 (EGFR WT)
pIC50: −log10 of the molar value.
Experimental endpoint: pIC50

> print(dat)
                                   compound  experimental.endpoint   value
1  CC(C)[C@H]1NC(=O)Cc2ccc(Cl)cc2Nc2ncnc3cc(OCCF)c(cc23)OCCCNC1=O [Compound (IIIa)]                  pIC50  < 4.60

====

- Experimental protocol: metabolic microsomal stability, human liver microsomes
- Assay type: in vitro ADME
- Setup conditions: pH 7.4, 0.5 mg/mL protein
Experimental endpoint: microsomal CLint at 3 μM

> print(dat)
                                   molecule           value
1  CC(C)C1NC(=O)Cc2ccc(Cl)cc2Nc2ncnc3cc(OCCF)c(cc23)OCCCNC1=O (stereo not shown) [Compound (Ia)]  7.76 µL/min/mg

====

- Target of assay: T790M (EGFR mutant) (Homo sapiens, UniProt P00533, L858R/T790M)
- Sequence (P00533 672-1210 T790M/L858R): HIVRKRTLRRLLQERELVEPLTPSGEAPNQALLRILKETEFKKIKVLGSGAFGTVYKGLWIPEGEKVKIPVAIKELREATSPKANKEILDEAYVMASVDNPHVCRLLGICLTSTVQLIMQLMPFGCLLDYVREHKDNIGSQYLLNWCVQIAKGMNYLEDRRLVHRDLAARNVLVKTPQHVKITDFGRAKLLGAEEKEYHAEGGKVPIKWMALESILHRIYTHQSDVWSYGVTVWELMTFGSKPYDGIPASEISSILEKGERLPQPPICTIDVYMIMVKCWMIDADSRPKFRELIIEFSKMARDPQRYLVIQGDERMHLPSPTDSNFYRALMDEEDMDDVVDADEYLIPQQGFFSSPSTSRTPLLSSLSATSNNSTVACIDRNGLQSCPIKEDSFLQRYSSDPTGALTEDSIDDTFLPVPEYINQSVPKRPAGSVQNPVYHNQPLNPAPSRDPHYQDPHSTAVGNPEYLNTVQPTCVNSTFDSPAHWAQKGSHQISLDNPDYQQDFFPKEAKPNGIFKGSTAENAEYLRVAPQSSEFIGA
- Experimental protocol: radiometric protein kinase assay (33PanQinase Activity Assay)
- Setup conditions: Test 1; read-out: Biochemical IC50 T790M
# IC50 per entry
Experimental endpoint: IC50 (nM)

> print(dat)
                                   compound  value
1  CC(C)[C@H]1NC(=O)Cc2ccc(Cl)cc2Nc2ncnc3cc(OCCF)c(cc23)OCCCNC1=O [Compound (IIIa)]   54.7
2  CC(C)[C@@H]1NC(=O)Cc2ccc(Cl)cc2Nc2ncnc3cc(OCCF)c(cc23)OCCCNC1=O [Compound (IIa)]   1010

====

- Experimental protocol: metabolic microsomal stability, human liver microsomes
- Type: in vitro ADME
- Setup conditions: pH 7.4, 0.5 mg/mL protein, read-out: human microsomal stability t1/2
Experimental endpoint: half-life at 3 μM

> print(dat)
                                   compound   value
1  CC(C)C1NC(=O)Cc2ccc(Cl)cc2Nc2ncnc3cc(OCCF)c(cc23)OCCCNC1=O (stereo not shown)  2.98 h

Data provenance: patent US10716869B2
